system: NCI-H358; assay: relative viability (nuclei count vs DMSO), 5 days (fraction); higher = more cells survive; details: first compound 1.265 µM
measured-quantity: relative viability
Answers are plain numbers.

Worked cases, relative viability given:
compound	relative viability
COc1cc(N2CCC(C(N)=O)CC2)ccc1Nc1nc(N)c(Cl)c(Nc2ccccc2S(=O)(=O)C(C)C)n1 [HG-5-88-01] + Cc1nc(Nc2ncc(C(=O)Nc3c(C)cccc3Cl)s2)cc(N2CCN(CCO)CC2)n1 [Dasatinib] (partner 0.075 µM)	0.11
COc1cc(N2CCC(C(N)=O)CC2)ccc1Nc1nc(N)c(Cl)c(Nc2ccccc2S(=O)(=O)C(C)C)n1 [HG-5-88-01] + O=C(c1cc(Cc2n[nH]c(=O)c3ccccc23)ccc1F)N1CCN(C(=O)C2CC2)CC1 [Olaparib] (partner 8 µM)	0.242
COc1cc(N2CCC(C(N)=O)CC2)ccc1Nc1nc(N)c(Cl)c(Nc2ccccc2S(=O)(=O)C(C)C)n1 [HG-5-88-01] + CS(=O)(=O)CCNCc1ccc(-c2ccc3ncnc(Nc4ccc(OCc5cccc(F)c5)c(Cl)c4)c3c2)o1 [Lapatinib] (partner 2 µM)	0.256

Give a short answer stating reported relative viability for COc1cc(N2CCC(C(N)=O)CC2)ccc1Nc1nc(N)c(Cl)c(Nc2ccccc2S(=O)(=O)C(C)C)n1 [HG-5-88-01] + C[C@@H](Oc1cc(-c2cnn(C3CCNCC3)c2)cnc1N)c1c(Cl)ccc(F)c1Cl [Crizotinib] (partner 1 µM) .
0.318

---

tested on: LC-2-ad; assay: relative viability (nuclei count vs DMSO), 5 days (fraction); higher = more cells survive; conditions: first compound 1.265 µM
measured-quantity: relative viability
Numbers only.

Worked cases, relative viability given:
compound	relative viability
COc1cc(N2CCC(C(N)=O)CC2)ccc1Nc1nc(N)c(Cl)c(Nc2ccccc2S(=O)(=O)C(C)C)n1 [HG-5-88-01] + CC(=O)Nc1cccc(-n2c(=O)n(C3CC3)c(=O)c3c(Nc4ccc(I)cc4F)n(C)c(=O)c(C)c32)c1 [Trametinib] (partner 0.02 µM)	0.896
Clc1ccc(Nc2nnc(Cc3ccncc3)c3ccccc23)cc1 [Vatalanib] + CS(=O)(=O)N1CCN(Cc2cc3nc(-c4cccc5[nH]ncc45)nc(N4CCOCC4)c3s2)CC1 [Pictilisib] (partner 1 µM)	0.509
COc1cc(N2CCC(C(N)=O)CC2)ccc1Nc1nc(N)c(Cl)c(Nc2ccccc2S(=O)(=O)C(C)C)n1 [HG-5-88-01] + Cc1nc(Nc2ncc(C(=O)Nc3c(C)cccc3Cl)s2)cc(N2CCN(CCO)CC2)n1 [Dasatinib] (partner 0.075 µM)	0.287

Report relative viability for each item below.
1. Clc1ccc(Nc2nnc(Cc3ccncc3)c3ccccc23)cc1 [Vatalanib] + N=C(N)NC(=N)NCCc1ccccc1 [Phenformin] (partner 250 µM)
2. Clc1ccc(Nc2nnc(Cc3ccncc3)c3ccccc23)cc1 [Vatalanib] + C[C@]1(O)C[C@@H](c2nc(-c3ccc4ccc(-c5ccccc5)nc4c3)c3c(N)nccn32)C1 [Linsitinib] (partner 1 µM)

[0.517, 0.841]

Give a short answer stating reported relative viability for Clc1ccc(Nc2nnc(Cc3ccncc3)c3ccccc23)cc1 [Vatalanib] + CC1(C)CCC(c2ccc(Cl)cc2)=C(CN2CCN(c3ccc(C(=O)NS(=O)(=O)c4ccc(N[C@H](CCN5CCOCC5)CSc5ccccc5)c(S(=O)(=O)C(F)(F)F)c4)cc3)CC2)C1 [Navitoclax] (partner 0.5 µM) .
0.412

---

Hi there, I'd appreciate the recorded relative viability for every entry that follows.
test system: H3255; assay: relative viability (nuclei count vs DMSO), 5 days (fraction); higher = more cells survive; conditions: first compound 0.08 µM
Give bare numbers.

Worked cases, relative viability given:
compound	relative viability
CCCCCCCCCCCC1=C(O)C(=O)C=C(O)C1=O [Embelin] + Cc1nc(NC(=O)N2CCC[C@H]2C(N)=O)sc1-c1ccnc(C(C)(C)C(F)(F)F)c1 [Alpelisib] (partner 2 µM)	0.935
CCCCCCCCCCCC1=C(O)C(=O)C=C(O)C1=O [Embelin] + NC(=O)Nc1cc(-c2cccc(F)c2)sc1C(=O)N[C@H]1CCCNC1 [AZD7762] (partner 0.2 µM)	0.826

Next item in the queue.
Give a short answer stating reported relative viability for CCCCCCCCCCCC1=C(O)C(=O)C=C(O)C1=O [Embelin] + CC(=O)Nc1cccc(-n2c(=O)n(C3CC3)c(=O)c3c(Nc4ccc(I)cc4F)n(C)c(=O)c(C)c32)c1 [Trametinib] (partner 0.02 µM) .
0.601

---

tested on: NCI-H460; assay: relative viability (nuclei count vs DMSO), 5 days (fraction); higher = more cells survive; conditions: first compound 0.4 µM
measured-quantity: relative viability
Numbers only.

compound	relative viability
COc1cc(N2CCC(C(N)=O)CC2)ccc1Nc1nc(N)c(Cl)c(Nc2ccccc2S(=O)(=O)C(C)C)n1 [HG-5-88-01] + CC1(C)CCC(c2ccc(Cl)cc2)=C(CN2CCN(c3ccc(C(=O)NS(=O)(=O)c4ccc(N[C@H](CCN5CCOCC5)CSc5ccccc5)c(S(=O)(=O)C(F)(F)F)c4)cc3)CC2)C1 [Navitoclax] (partner 0.5 µM)	0.901

Report relative viability for each item below.
1. C[C@@H]1CN(CC(=O)Nc2ccc3c(c2)Cc2cccc(-c4cc(=O)cc(N5CCOCC5)o4)c2S3)C[C@H](C)O1 + COc1cc2c(Oc3ccc(NC(=O)C4(C(=O)Nc5ccc(F)cc5)CC4)cc3F)ccnc2cc1OCCCN1CCOCC1 [Foretinib] (partner 0.25 µM)
2. C[C@@H]1CN(CC(=O)Nc2ccc3c(c2)Cc2cccc(-c4cc(=O)cc(N5CCOCC5)o4)c2S3)C[C@H](C)O1 + CS(=O)(=O)N1CCN(Cc2cc3nc(-c4cccc5[nH]ncc45)nc(N4CCOCC4)c3s2)CC1 [Pictilisib] (partner 1 µM)
3. C[C@@H]1CN(CC(=O)Nc2ccc3c(c2)Cc2cccc(-c4cc(=O)cc(N5CCOCC5)o4)c2S3)C[C@H](C)O1 + Cc1nc(Nc2ncc(C(=O)Nc3c(C)cccc3Cl)s2)cc(N2CCN(CCO)CC2)n1 [Dasatinib] (partner 0.075 µM)

1. 1.1
2. 0.279
3. 0.427

---

system: NCI-H1666; test: relative viability (nuclei count vs DMSO), 5 days (fraction); higher = more cells survive; conditions: first compound 0.3162 µM
measured-quantity: relative viability

Worked cases, relative viability given:
compound	relative viability
CC(C)Oc1cc(Nc2nc(N[C@@H](C)c3ccc(F)cn3)ncc2Cl)n[nH]1 [AZ23] + CC1(C)CCC(c2ccc(Cl)cc2)=C(CN2CCN(c3ccc(C(=O)NS(=O)(=O)c4ccc(N[C@H](CCN5CCOCC5)CSc5ccccc5)c(S(=O)(=O)C(F)(F)F)c4)cc3)CC2)C1 [Navitoclax] (partner 0.5 µM)	1
CC(C)Oc1cc(Nc2nc(N[C@@H](C)c3ccc(F)cn3)ncc2Cl)n[nH]1 [AZ23] + CC(=O)Nc1cccc(-n2c(=O)n(C3CC3)c(=O)c3c(Nc4ccc(I)cc4F)n(C)c(=O)c(C)c32)c1 [Trametinib] (partner 0.02 µM)	0.903
CC(C)Oc1cc(Nc2nc(N[C@@H](C)c3ccc(F)cn3)ncc2Cl)n[nH]1 [AZ23] + Nc1nc2[nH]cc(CCc3ccc(C(=O)N[C@@H](CCC(=O)O)C(=O)O)cc3)c2c(=O)[nH]1 [Pemetrexed] (partner 0.2 µM)	0.771
CC(C)Oc1cc(Nc2nc(N[C@@H](C)c3ccc(F)cn3)ncc2Cl)n[nH]1 [AZ23] + Cc1nc(Nc2ncc(C(=O)Nc3c(C)cccc3Cl)s2)cc(N2CCN(CCO)CC2)n1 [Dasatinib] (partner 0.075 µM)	0.809
CC(C)Oc1cc(Nc2nc(N[C@@H](C)c3ccc(F)cn3)ncc2Cl)n[nH]1 [AZ23] + COc1cc2c(Oc3ccc(NC(=O)C4(C(=O)Nc5ccc(F)cc5)CC4)cc3F)ccnc2cc1OCCCN1CCOCC1 [Foretinib] (partner 0.25 µM)	0.918

Provide relative viability, system NCI-H1666, entry CC(C)Oc1cc(Nc2nc(N[C@@H](C)c3ccc(F)cn3)ncc2Cl)n[nH]1 [AZ23] + O=C(CCCCCCC(=O)Nc1ccccc1)NO [Vorinostat] (partner 1 µM)
1.03

---

tested on: 201T; experiment: relative viability (nuclei count vs DMSO), 5 days (fraction); higher = more cells survive; conditions: first compound 2.53 µM
measured-quantity: relative viability
Answers are plain numbers.

Report relative viability for each item below.
1. CCCCCCCCCCCC1=C(O)C(=O)C=C(O)C1=O [Embelin] + Cc1nc(Nc2ncc(C(=O)Nc3c(C)cccc3Cl)s2)cc(N2CCN(CCO)CC2)n1 [Dasatinib] (partner 0.075 µM)
2. CCCCCCCCCCCC1=C(O)C(=O)C=C(O)C1=O [Embelin] + O=C(c1cc(Cc2n[nH]c(=O)c3ccccc23)ccc1F)N1CCN(C(=O)C2CC2)CC1 [Olaparib] (partner 8 µM)
3. CCCCCCCCCCCC1=C(O)C(=O)C=C(O)C1=O [Embelin] + CC1(C)CCC(c2ccc(Cl)cc2)=C(CN2CCN(c3ccc(C(=O)NS(=O)(=O)c4ccc(N[C@H](CCN5CCOCC5)CSc5ccccc5)c(S(=O)(=O)C(F)(F)F)c4)cc3)CC2)C1 [Navitoclax] (partner 0.5 µM)

[0.519, 0.853, 1.19]

Report relative viability for each item below.
1. CCCCCCCCCCCC1=C(O)C(=O)C=C(O)C1=O [Embelin] + Nc1nc2[nH]cc(CCc3ccc(C(=O)N[C@@H](CCC(=O)O)C(=O)O)cc3)c2c(=O)[nH]1 [Pemetrexed] (partner 0.2 µM)
2. CCCCCCCCCCCC1=C(O)C(=O)C=C(O)C1=O [Embelin] + N=C(N)NC(=N)NCCc1ccccc1 [Phenformin] (partner 250 µM)

[0.333, 0.482]
